Tested on: UACC-257 melanoma
procedureText: NCI tumour cell line growth inhibition, 48 h
attributeMeasured: TGI

>>> result("COC(=O)C1(Cc2ccccc2)Cc2ccccc2C1")
"65.6 µM"

What does the data say about its TGI? Entry: COc1c2cc(C(C)(C)C)cc1Cc1cccc(c1O)Cc1cc(C(C)(C)C)cc(c1OC)Cc1cccc(c1O)Cc1cc(C(C)(C)C)cc(c1OC)Cc1cccc(c1O)C2
> 100 µM

Report TGI for CC1CCN(CC(=O)N2c3ccccc3Sc3cc4ccccc4cc32)CC1 please.
> 100 µM

TGI for CC(C)N(C)C(=O)C12C3C4C1C1C2C3C41C#N (stereo not given) ?
> 100 µM

TGI lookup needed for Cc1ccc(S(=O)(=O)N=Nc2c(O)[nH]c3c(Cl)cc(Cl)cc23)cc1 , thanks.
> 100 µM

* * *

Tested on: SF-539 CNS
procedureText: NCI tumour cell line growth inhibition, 48 h
Where a SMILES comes first, the peptide text is derived from it. The star is where a group is joined. Boc = CC(C)(C)OC(=O)*; OBn = c1ccc(CO*)cc1
attributeMeasured: TGI (µM)
Report the figure in µM without appending any unit label.

Endpoint output: TGI of CC(C)(C)OC(=O)NC(Cc1ccccc1)C(=O)NC(Cc1ccccc1)C(=O)NCC(=O)OCc1ccccc1 (stereo not drawn) (Boc-Phe-Phe-Gly-OBn; configuration not given here) . Value?
44.1

GET /values?readout=TGI&item= COc1cc2nc(-c3ccc(C(F)(F)F)cc3)cc(OCCCN3CCCCC3)c2cc1OC
8.32

# input compound: CC(=O)c1cc2c(s1)C(=O)c1ccccc1C2=O ; wanted: its TGI
8.32

Fill in the blank: the reported TGI of C=C(C=O)CCCC(C)[C@@H]1CCC23CC12CCC1[C@@]2(C)CCC(OC(C)=O)C(C)(C)C2CC(OC2OC(COC(C)=O)C(O)C(O)C2O)[C@]13C (some centres undefined) is ____.
11.4

Look up TGI: Cc1c(Cl)cccc1NC(=O)CC1C(=O)Nc2ccccc2S1(=O)=O (centres undefined)
28.7

* * *

Tested on: SK-OV-3 ovarian
procedureText: NCI tumour cell line growth inhibition, 48 h
attributeMeasured: TGI

Some solved cases for reference:
>>> result("Cc1c(NC2(C)C(=O)N(/N=C/c3ccccc3)N=C2c2ccccc2)n[nH]c1-c1ccccc1 (stereo unspecified)")
"> 100 µM"
>>> result("COC(=O)c1c(-c2ccccc2)sc(-c2cccc3ccccc23)c1C(=O)OC")
"> 100 µM"
>>> result("O=c1ccc(=O)c2c(=O)c3ccccc3c(=O)c1=2")
"> 100 µM"

Now look at this one.
What value of TGI on SK-OV-3 ovarian does NC(N)=NS(=O)(=O)c1ccc(NC(=O)c2ccc3nc4ccccc4c(Nc4ccc(S(N)(=O)=O)cc4)c3c2)cc1 have?
> 100 µM

* * *

Tested on: HCC-2998 colon
procedureText: NCI tumour cell line growth inhibition, 48 h; in the data active = GI50 below about 0.43 µM; inactive = the rest
Reply using exactly one outcome from active, inactive

Which outcome did this test record for the compound O=[N+]([O-])c1ccc2c(c1)[O][Sn]([I])([I])[O]2 ?
inactive

# outcome recorded in this test, key = O=C1CC(=O)OC(c2ccc([N+](=O)[O-])cc2)O1
inactive

Call for entry COc1cc(Cn2c(-c3nonc3N)nc3ccccc32)ccc1C :
inactive

Could you check what this test reported for CC[C@@]1(O)C(=O)OCc2c1cc1n(c2=O)Cc2cc3cc(N)ccc3nc2-1 ?
active

Status in this test for Cc1ccc(NC(=O)Cn2c(Br)nc3c2c(=O)n(C)c(=O)n3C)cc1 ?
inactive

Could you kindly confirm the outcome this assay logged for COc1cc(S(=O)(=O)Nc2ccc(C3=NNC(c4ccccc4)C3)cc2)ccc1F (stereo unspecified) ?
inactive
